Collected literature values of IC50 measured for UniProtKB P36897.

As a guide, the following entries are already answered.
1) CC(C)(O)c1cc(Nc2cc(Oc3cn(C4CCC4)nc3C3CCOCC3)ccn2)ccn1    0.051 µM
2) CN1CCC(C(=O)Nc2cc(Nc3cc(-c4ccccc4F)nc4ncccc34)ncn2)CC1    < 0.1 µM
3) Fc1ccc(Cl)cc1-c1cc(Nc2ccncc2OCCN2CCOCC2)c2cccnc2n1    0.1 to 1 µM
4) CC(=O)Nc1cc(Nc2cc(-c3ccccc3CO)c(=O)[nH]c2C(C)C)ccn1    > 5 µM

Entry `CN(C)c1cc(Nc2cc(-c3cc(Cl)ccc3F)nc3ncccc23)ncn1` under UniProtKB P36897 had IC50 of < 0.1 µM

Entry `CC(C)(C)CC(=O)Nc1cc(Nc2cc(-c3cc(F)ccc3F)nc3ncccc23)ncn1` under UniProtKB P36897 had IC50 of < 0.1 µM

Entry `CC(C)n1nc(C(F)(F)F)cc1Oc1ccnc(Nc2ccnc(C(C)(C)O)c2)c1` under UniProtKB P36897 had IC50 of 0.066 µM
